Listing of entries alongside the reported Percent Effect.
biological target: Sialic acid-binding Ig-like lectin 9 (Homo sapiens); assay: Hs-Siglec9 ALPHAscreen SOP 20170721; set-up: scale not given: direction of the effect not stated beside the values; conditions: 10 µM
Property name: Percent Effect (%)

- Cc1cc(CN2CCOC(CN(C)C)C2)no1 (centres undefined): 0.559
- Cn1c(Cn2ccnc2)nnc1C1CCCN(C2CCCCC2)C1 (centres undefined): 1.26
- COc1c(C(=O)NCc2cccnc2)nnn1Cc1ccc(C)cc1: 3.68
- CCCNC(=O)c1c(-n2cnnn2)sc2c1CCC2: 2.22
- Cn1cc(C2CCCN2C(=O)c2ccc(Br)o2)cn1 (centres undefined): -8.81
- Cc1csc(C2CCCN(C(=O)c3ccc(=O)n(C)n3)C2)n1 (centres undefined): -7.99
- COc1cc2ncn(CC(=O)NCCCN(C)C)c(=O)c2cc1OC: 0.564
- CCc1ccccc1-n1nnc(C(=O)O)c1-c1ccccn1: -0.0352
- O=C(Cc1ccc(F)cc1)N1CCn2cc(Cn3cccn3)nc2C1: -3.22
- CC(C)c1nn(C)c(N(C)C)c1CNCc1ccccc1CN(C)C: 13
- Cc1cccc(NC2CCN(C(=O)Nc3cccc4[nH]ccc34)CC2)n1: 10.2
- c1cnc(-c2nc(CN3CCCC(Cn4cncn4)C3)cs2)nc1 (centres undefined): 6.78
- CCOCCN1CCN(Cc2cccc(C(=O)N(C)C)c2)CC1: 18
- CCOc1ncccc1C(=O)N1CCCCC1c1nccs1 (centres undefined): 15.7
- COc1ccc(OC)c(NC(=O)NCC(O)c2ccc(F)c(F)c2)c1 (centres undefined): -1.21
- Cc1nc2ccccc2c(=O)n1CCC(=O)N1CCSCC1: 6.54
- COc1cccc(CNc2nc(O)cc(C3CC(=O)N(C)C3)n2)c1 (centres undefined): 1.72
- c1csc(-c2nc(CN3CCOC(Cn4cncn4)C3)co2)c1 (centres undefined): -3.91
- CCN(CC)c1ccc(-c2nc(-c3cccc(OC)c3OC)no2)cn1: 12.2
- Cc1cnc(C(=O)N2CCCC(n3ccnc3C)C2)cn1 (centres undefined): 7.54
- Cc1cc(C)c(CNC(=O)N2CCCC2c2ccccc2)c(=O)[nH]1 (centres undefined): 3.59
- CCCn1cc(C(=O)N(C)Cc2nc(-c3ccccn3)no2)c(C)n1: 4.11
- O=c1cc(CN2CCCC2)nc2n1CCCN(Cc1ccsc1)C2: 2.2
- Cn1c(CN2CCOCC2)nnc1C1CCN(C(=O)C2CCCC2)CC1: 14.3
